// provenance: PubChem BioAssay AID803

Molecular target: Galanin receptor type 2 (Homo sapiens) (UniProt O43603)
Sequence (O43603 whole entry, looked up): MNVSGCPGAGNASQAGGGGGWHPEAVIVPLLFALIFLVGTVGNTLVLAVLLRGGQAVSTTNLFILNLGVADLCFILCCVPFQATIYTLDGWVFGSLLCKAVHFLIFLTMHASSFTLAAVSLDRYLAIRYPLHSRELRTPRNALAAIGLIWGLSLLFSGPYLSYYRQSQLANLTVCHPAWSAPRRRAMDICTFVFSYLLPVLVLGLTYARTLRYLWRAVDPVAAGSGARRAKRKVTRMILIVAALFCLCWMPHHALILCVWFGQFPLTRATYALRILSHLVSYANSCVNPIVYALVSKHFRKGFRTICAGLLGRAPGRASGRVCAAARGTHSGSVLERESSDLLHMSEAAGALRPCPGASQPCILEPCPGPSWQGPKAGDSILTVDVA
Assay: GALR2 receptor agonists, primary screen, cell-based (AID 803);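 note: 0% = vehicle buffer wells and 100% = reference agonist at full effect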
Conditions: GALR2-expressing cells, agonist activation read-out; at 5.6 µM; hits give high values
In all, about 140,000 compounds went through this assay and about 680 (0.49%) were called active. This is one part of a sample in which actives are shown more often than they occur.
Reported activation values for the following compounds.
API: value field is a number in %; no unit string.

Some compounds with recorded activation:
Cc1cc2c(C)nc(N/N=C/c3ccccc3)nc2o1 | 0.45
COc1ccc(C2CC(c3ccccc3)=NN2C(=O)c2ccc(Cl)c([N+](=O)[O-])c2)cc1 (stereo not given) | 4.95
CCOc1ccc(C(O)Cn2c(=N)n(CCN3CCCCC3)c3ccccc32)cc1 (stereo not given) | 25.8

Query: Query (compound): `Cc1ccc(Cc2c(C)nc3nc(SCC(=O)NCCN4CCOCC4)nn3c2C)cc1` ; field requested: activation
Response: 24.8

Query: Next up: `N=c1n(CCc2ccccc2)c2ccccc2n1Cc1ccccc1F`
Response: -1.04

Query: Next up: `COc1ccc(OCc2cn3c(C)cc(C)nc3n2)cc1`
Response: -0.2

Query: Next up: `Cc1nn(-c2ccccc2)c(NC(=O)c2cccs2)c(-c2ccc(Cl)cc2)c1=O`
Response: -0.28

Query: Next up: COc1ccc(C2CC(c3ccccc3)=NN2C(=O)CSc2nccc(=O)[nH]2)cc1 (stereo not given)
Response: 0.01

Query: Next up: Cc1ccccc1N(C(=O)Cc1cccs1)C(C(=O)NC1CCCCC1)c1cn(C)nc1C (stereo not given)
Response: -0.31

Query: Next up: `Cc1ccc(NC(=S)NCCN2CCOCC2)cc1`
Response: -2.96

Query: Next up: `COc1ccc(C(=O)OCC(=O)NC(=O)CCSc2ccccc2)cc1`
Response: -1.93

Query: Next up: `O=C(CSc1ccccc1)Nc1cc(Cl)ccc1Oc1ccccc1`
Response: -0.74

Query: Next up: `FC(F)(F)c1cc(-c2cccs2)nc(NCc2ccco2)n1`
Response: -1.85

Query: Next up: `C=C(C)c1cccc(C(C)(C)NC(=O)NC2CCCC2)c1`
Response: -1.16

Query: Next up: COc1ccc(C2=NN(C(=O)c3cccnc3)C(c3ccccc3)C2)cc1 (stereo not given)
Response: -0.17

Query: Next up: `O=C(Nc1cccc(NC(=O)N2CCN(c3ccccc3)CC2)c1)N1CCN(c2ccccc2)CC1`
Response: -2.65

Query: Next up: `Cc1ccc(S(=O)(=O)N2CCN(CC(=O)N/N=C/c3cc([N+](=O)[O-])ccc3Cl)CC2)cc1`
Response: -0.78

Query: Next up: `Cc1csc(NC(=O)c2ccc(-c3ccc(Cl)cc3Cl)o2)n1`
Response: 8.53

Query: Next up: `COc1cccc(N2CCN(C(=O)Nc3ccc4c(c3)NC(=O)CO4)CC2)c1`
Response: -2.77

Query: Next up: `CCOC(=O)Cn1c(SC)nc2sc3c(c2c1=O)CC(C)(C)OC3`
Response: -1.18

Query: Next up: `CC(=O)c1sc(N/N=C\c2ccc(C)cc2)nc1C`
Response: 2.02
